System: 883617-216-R-J1-PDC complex spheroid viability
PROCEDURE_DETAILS: Anticancer human tumor 883617-216-R-J1-PDC patient-derived bladder carcinoma cell line growth inhibition
CONDITION_LABEL: curve of first compound; second compound 1 µM
The entries below are paired with their reported IC50.

[
  {
    "COMPOUND": "Nc1ccn(C2OC(CO)C(O)C2(F)F)c(=O)n1 (stereo not drawn) + NC1CCC(NC2CC2c2ccccc2)CC1",
    "IC50": "< 0.949 nM"
  },
  {
    "COMPOUND": "CCc1c2c(nc3ccc(O)cc13)-c1cc3c(c(=O)n1C2)COC(=O)[C@]3(O)CC + NC1CCC(NC2CC2c2ccccc2)CC1",
    "IC50": "< 0.949 nM"
  },
  {
    "COMPOUND": "Nc1ncn(C2CC(O)C(CO)O2)c(=O)n1 (stereo not drawn) + NC1CC1c1ccc(-c2cccc(O)c2)cc1",
    "IC50": "> 1000 nM"
  }
]

----------
Tested on: 883617-216-R-J1-PDC complex spheroid viability
PROCEDURE_DETAILS: Anticancer human tumor 883617-216-R-J1-PDC cell line growth inhibition;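 also: exposure lasted seven days after three days of spheroid growth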
CONDITION_LABEL: curve of first compound; second compound 10 µM
pIC50: −log10 of the molar value.

[
  {
    "COMPOUND": "CC(C)c1c(-c2ccccc2)nc2c(C#N)c[nH]n2c1=O + NC1CC1c1ccc(-c2cccc(O)c2)cc1",
    "pIC50": "< 5.00"
  },
  {
    "COMPOUND": "Nc1ccn(C2OC(CO)C(O)C2(F)F)c(=O)n1 (stereo not given) + NC1CC1c1ccc(-c2cccc(O)c2)cc1",
    "pIC50": "> 9.02"
  },
  {
    "COMPOUND": "CCc1c2c(nc3ccc(O)cc13)-c1cc3c(c(=O)n1C2)COC(=O)[C@]3(O)CC + NC1CC1c1ccc(-c2cccc(O)c2)cc1",
    "pIC50": "> 9.02"
  },
  {
    "COMPOUND": "Nc1ncn(C2CC(O)C(CO)O2)c(=O)n1 (stereo not given) + NC1CC1c1ccc(-c2cccc(O)c2)cc1",
    "pIC50": "< 6.00"
  },
  {
    "COMPOUND": "CCc1c2c(nc3ccc(O)cc13)-c1cc3c(c(=O)n1C2)COC(=O)[C@]3(O)CC + NC1CCC(NC2CC2c2ccccc2)CC1",
    "pIC50": "> 9.02"
  }
]

----------
Test system: 883617-216-R-J1-PDC complex spheroid viability
PROCEDURE_DETAILS: Anticancer human tumor 883617-216-R-J1-PDC cell line growth inhibition;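 also: exposure lasted seven days after three days of spheroid growth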;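 as to viability, T/C: 100% = DMSO vehicle control luminescence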
CONDITION_LABEL: second compound 10 µM; first compound 0.00949 µM; stronger effect = lower value
Strictly below 90% in viability, T/C: True. Otherwise: False.

[
  {
    "COMPOUND": "Nc1ncn(C2CC(O)C(CO)S2)c(=O)n1 (stereo not given) + NC1CC1c1ccc(-c2cccc(O)c2)cc1",
    "CLASS": "True"
  },
  {
    "COMPOUND": "CCN(c1cc(-c2ccc(CN3CCOCC3)cc2)cc(C(=O)NCc2c(C)cc(C)[nH]c2=O)c1C)C1CCOCC1 + NC1CC1c1ccc(-c2cccc(O)c2)cc1",
    "CLASS": "True"
  },
  {
    "COMPOUND": "CCc1c2c(nc3ccc(O)cc13)-c1cc3c(c(=O)n1C2)COC(=O)[C@]3(O)CC + NC1CCC(NC2CC2c2ccccc2)CC1",
    "CLASS": "True"
  },
  {
    "COMPOUND": "NS(=O)(=O)OCC1CC(n2ccc3c(NC4CCc5ccccc54)ncnc32)CC1O (stereo not given) + NC1CC1c1ccc(-c2cccc(O)c2)cc1",
    "CLASS": "False"
  }
]
